Origin of values: PubChem BioAssay AID434987

# System: M. tuberculosis H37Rv growth inhibition with meropenem
# assayText: dose response, H37Rv, with and without meropenem (AID 434987);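 note: growth over 7 days at 37 °C before Alamar Blue read on day 9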
# conditionLabel: M. tuberculosis H37Rv growth inhibition; measured here: IC50 without meropenem
pIC50: −log10 of the molar value.
propertyLabel: pIC50

These solved cases illustrate the format of a correct answer.
- molecule: "CCCN1C(=O)c2ccc(C(=O)Nc3cc(C)on3)cc2C1=O"
  pIC50: "< 4.00"
- molecule: "COCCNC(=S)N/N=C(\\C)c1cccc(OC)c1"
  pIC50: 4.33
- molecule: "Cc1nc(/N=C(\\N)NC(=O)c2ccccc2)nc2ccccc12"
  pIC50: "< 4.00"
- molecule: "CCOC(=O)/C(C#N)=C/c1ccc(OCC(=O)Nc2ccccc2)c(OC)c1"
  pIC50: "< 4.00"
- molecule: "CCCC(C(=O)N1CCOCC1)N1C(=O)C2C3C=CC(C3)C2C1=O (stereo unspecified)"
  pIC50: "< 4.00"

Now examine the next entry.
CCCCCc1nnc(NC(=O)C2COc3ccccc3O2)s1 (stereo unspecified) yielded pIC50 of < 4.00

----------
Reported values of IC90 for individual entries
# Test system: M. tuberculosis H37Rv growth inhibition with meropenem
# assayText: dose response, H37Rv, with and without meropenem (AID 434987);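 note: growth over 7 days at 37 °C before Alamar Blue read on day 9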
# conditionLabel: measured here: IC90 with meropenem

These solved cases illustrate the format of a correct answer.
- compound: "Cc1cccnc1NC(=O)c1cc2ccccc2oc1=O"
  propertyLabel: "IC90"
  result: "> 100 µM"
- compound: "Cc1cc(Br)ccc1NC(=O)CN1C(=O)C2CC=CCC2C1=O (stereo unspecified)"
  propertyLabel: "IC90"
  result: "38.7 µM"
- compound: "O=c1oc(-c2ccccc2F)nc2scc(-c3ccccc3)c12"
  propertyLabel: "IC90"
  result: "3.05 µM"
- compound: "COc1ccnc(CS(=O)c2nc3cc(OC(F)F)ccc3[nH]2)c1OC (stereo unspecified)"
  propertyLabel: "IC90"
  result: "> 100 µM"
- compound: "CC1=NN(c2ccccc2)C(=O)C1C=Nc1ccccc1O (stereo unspecified)"
  propertyLabel: "IC90"
  result: "> 100 µM"
- compound: "Cc1cccc(-n2nc([N+](=O)[O-])c(=NC3CCN(Cc4ccccc4)CC3)n2O)c1"
  propertyLabel: "IC90"
  result: "30.5 µM"
- compound: "COC(=O)c1c(C(=O)OC)c(C)n(Cc2ccco2)c1C"
  propertyLabel: "IC90"
  result: "> 100 µM"
- compound: "C=CCNC(=S)NC(=O)c1csc([N+](=O)[O-])c1"
  propertyLabel: "IC90"
  result: "> 100 µM"

`CCN(CC(=O)Nc1ccc2c(c1)OCCO2)C(=O)c1ccc([N+](=O)[O-])s1` yielded IC90 of 26 µM

`O=C(N/N=C/c1c(Cl)cccc1Cl)c1cccc(F)c1` yielded IC90 of > 100 µM

`CCCc1nc2oc3c(OCC)ncnc3c2c2c1COC(C)(C)C2` yielded IC90 of > 100 µM

----------
# Test system: M. tuberculosis H37Rv growth inhibition with meropenem
# assayText: dose response, H37Rv, with and without meropenem (AID 434987);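 note: growth over 7 days at 37 °C before Alamar Blue read on day 9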
# conditionLabel: measured here: IC90 with meropenem
propertyLabel: IC90 (µM)
Kindly answer with a numeric value in µM, unit omitted.

- compound: "C/C(CC(=O)Nc1c(C)cc(C)cc1C)=N\\NC(=O)c1cnccn1"
  propertyLabel: "IC90"
  numericResult: 17.4

Result for `C=CCNC1=C(Cl)C(=O)N(c2cccc(Cl)c2Cl)C1=O` , tested on M. tuberculosis H37Rv growth inhibition with meropenem, IC90: 30.2

----------
# Tested on: M. tuberculosis H37Rv growth inhibition with meropenem
# assayText: dose response, H37Rv, with and without meropenem (AID 434987);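 note: growth over 7 days at 37 °C before Alamar Blue read on day 9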
# conditionLabel: M. tuberculosis H37Rv growth inhibition; measured here: IC50 without meropenem
propertyLabel: IC50

These solved cases illustrate the format of a correct answer.
- molecule: "CCCCNC(=O)/C(=C/c1ccccc1)NC(C)=O"
  result: "> 100 µM"
- molecule: "C#C[C@]1(O)CC[C@H]2[C@@H]3CCC4=C(CCC(=O)C4)[C@H]3CC[C@@]21C"
  result: "> 100 µM"
- molecule: "COc1ccccc1NS(=O)(=O)c1cccc(N2CC(O)=C(c3ccccc3)C2=N)c1"
  result: "21.1 µM"

COc1ccnc(CS(=O)c2nc3cc(OC(F)F)ccc3[nH]2)c1OC (stereo not given) yielded IC50 of > 100 µM

`Cc1ccc2c(Cl)cc(Cl)c(OCc3c(C)noc3C)c2n1` yielded IC50 of > 100 µM

----------
# System: M. tuberculosis H37Rv growth inhibition with meropenem
# assayText: dose response, H37Rv, with and without meropenem (AID 434987);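 note: growth over 7 days at 37 °C before Alamar Blue read on day 9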
# conditionLabel: measured here: IC90 with meropenem
propertyLabel: IC90

- compound: "CCCC(=O)N1CCN(c2ccc(NC(=S)NC(=O)CC)cc2)CC1"
  IC90: "> 100 µM"
- compound: "CCOC(=O)CNC(=O)c1cccnc1Oc1ccc(Cl)cc1"
  IC90: "> 100 µM"
- compound: "COc1ccc(-c2csc(NC(CO)c3nc4ccccc4n3Cc3ccc(C)cc3)n2)cc1 (stereo not given)"
  IC90: "26.4 µM"

`Cc1cc(N2CCCCCC2)nc(-c2ccccc2O)n1` yielded IC90 of > 100 µM

`CC1(C)C[C@@H]1C(=O)N/C(=C\CCCCSC[C@H](N)C(=O)O)C(=O)O` yielded IC90 of > 100 µM

`COc1ccc(S(=O)(=O)N(C(=O)c2ccncc2)c2ccc3oc4c(c3c2)CCCC4)cc1` yielded IC90 of > 100 µM

`O=C(Oc1c(-c2ccccc2)c(=O)n2c3c(cccc13)CC2)c1ccc(F)cc1` yielded IC90 of 34 µM

`O=C(Cn1cnc2sc3c(c2c1=O)CCCC3)NCC(=O)Nc1ccccc1F` yielded IC90 of 95.5 µM

`COc1ccc(Nc2cc(C(=O)NCc3ccco3)c3ccccc3n2)c(OC)c1` yielded IC90 of > 100 µM

`COc1ccc2nc(NC(=O)c3ccc(Br)s3)sc2c1` yielded IC90 of > 100 µM

----------
# System: M. tuberculosis H37Rv growth inhibition with meropenem
# assayText: dose response, H37Rv, with and without meropenem (AID 434987);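 note: growth over 7 days at 37 °C before Alamar Blue read on day 9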
# conditionLabel: M. tuberculosis H37Rv growth inhibition; measured here: IC50 without meropenem
pIC50: −log10 of the molar value.
Reported values of pIC50 for individual entries

These solved cases illustrate the format of a correct answer.
- molecule: "O=C(Nc1ccc(OC(=O)c2ccccc2)c(-c2nc3ccccc3s2)c1)c1ccccc1"
  experimentalSystem: "M. tuberculosis H37Rv growth inhibition with meropenem"
  pIC50: "< 4.00"
- molecule: "O=C(NN1C(=O)C2C(C1=O)C1C=CC2C12CC2)c1ccncc1 (stereo unspecified)"
  experimentalSystem: "M. tuberculosis H37Rv growth inhibition with meropenem"
  pIC50: 4.25
- molecule: "O=C1COc2ccc(C(=O)/C=C/c3ccccc3)cc2N1"
  experimentalSystem: "M. tuberculosis H37Rv growth inhibition with meropenem"
  pIC50: 4.59
- molecule: "CCOc1nnnc2c1sc1nc(N3CCOCC3)c3c(c12)CCCC3"
  experimentalSystem: "M. tuberculosis H37Rv growth inhibition with meropenem"
  pIC50: "< 4.00"
- molecule: "Cc1c2c(nc3c(C(=O)NC4CCCC4)cnn13)CCCC2"
  experimentalSystem: "M. tuberculosis H37Rv growth inhibition with meropenem"
  pIC50: "< 4.00"

`Fc1ccc(-c2csc(NC(=S)Nc3ccccc3)n2)cc1` yielded pIC50 of < 4.00

----------
# System: M. tuberculosis H37Rv growth inhibition with meropenem
# assayText: dose response, H37Rv, with and without meropenem (AID 434987);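 note: growth over 7 days at 37 °C before Alamar Blue read on day 9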
# conditionLabel: M. tuberculosis H37Rv growth inhibition; measured here: IC50 without meropenem
pIC50: −log10 of the molar value.
propertyLabel: pIC50

- compound: "Cc1cc(C)c2sc(N(CCCN(C)C)C(=O)COc3ccc(Cl)cc3)nc2c1"
  propertyLabel: "pIC50"
  result: 4.27
- compound: "COC(=O)Cn1nc(-c2ccccc2)c2ccccc21"
  propertyLabel: "pIC50"
  result: "< 4.00"
- compound: "CC(C(=O)Nc1sc2c(c1C(=O)NCc1ccco1)CCCC2)N1C(=O)c2ccccc2C1=O (stereo unspecified)"
  propertyLabel: "pIC50"
  result: "< 4.00"
- compound: "O=C(NC1CCCCC1)C1CCN(c2nccs2)CC1"
  propertyLabel: "pIC50"
  result: "< 4.00"
- compound: "CC(=O)NC(=S)Nc1ccc(NC(=O)c2cccnc2Cl)cc1"
  propertyLabel: "pIC50"
  result: "< 4.00"

`CSc1ccc(-c2nnn(CC(=O)NCc3ccccc3)n2)cc1` yielded pIC50 of < 4.00

----------
# Test system: M. tuberculosis H37Rv growth inhibition with meropenem
# assayText: dose response, H37Rv, with and without meropenem (AID 434987);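 note: growth over 7 days at 37 °C before Alamar Blue read on day 9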
# conditionLabel: M. tuberculosis H37Rv growth inhibition; measured here: IC50 without meropenem
Reported values of IC50 for individual entries

These solved cases illustrate the format of a correct answer.
- molecule: "COC(=O)c1c(CSc2cccc(C)c2)noc1C(=O)NCc1ccco1"
  IC50: "> 100 µM"
- molecule: "O=C(Nc1ccccc1)Nc1csc2ccccc12"
  IC50: "23.9 µM"
- molecule: "O=C1/C(=C/C=C/c2ccco2)SC(=S)N1c1ccc(O)cc1"
  IC50: "> 100 µM"
- molecule: "CC1CCCN(S(=O)(=O)c2ccc(C(=O)Nc3nnc(-c4ccncc4)o3)cc2)C1 (stereo unspecified)"
  IC50: "49.3 µM"
- molecule: "CCCCNC(=O)c1onc(CSc2ccccc2CC)c1C(=O)O"
  IC50: "44.7 µM"
- molecule: "CC1(C)CCN2CCC(C)(C)c3c(O)ccc1c32"
  IC50: "47.1 µM"
- molecule: "CCOc1ccc2nc(N3CCC(C(=O)NC4CCCCC4)CC3)sc2c1"
  IC50: "> 100 µM"
- molecule: "CCc1ccccc1NC(=O)CNC(=O)c1cc(C2CC2)nn1-c1ccccc1"
  IC50: "> 100 µM"

`Cc1cccc(NC(=O)Cn2c(=O)n(Cc3ccccc3)c(=O)c3c(C)c(C)sc32)c1` yielded IC50 of > 100 µM

`COc1cc(OC)cc(-c2c(C#Cc3ccsc3)c3cc(-c4ccc(OC)nc4)ccc3n2C)c1` yielded IC50 of > 100 µM

`COC(=O)c1cnn(-c2ccccc2)c1/C=N/NC(=S)Nc1ccc(Cl)cc1` yielded IC50 of > 100 µM
